# reported inhibition; entries follow
# subjectOfTest: Protein Mdm4 (Homo sapiens) + E3 ubiquitin-protein ligase Mdm2 (Homo sapiens) (UniProt O15151+Q00987)
# Sequence (O15151 whole entry, looked up): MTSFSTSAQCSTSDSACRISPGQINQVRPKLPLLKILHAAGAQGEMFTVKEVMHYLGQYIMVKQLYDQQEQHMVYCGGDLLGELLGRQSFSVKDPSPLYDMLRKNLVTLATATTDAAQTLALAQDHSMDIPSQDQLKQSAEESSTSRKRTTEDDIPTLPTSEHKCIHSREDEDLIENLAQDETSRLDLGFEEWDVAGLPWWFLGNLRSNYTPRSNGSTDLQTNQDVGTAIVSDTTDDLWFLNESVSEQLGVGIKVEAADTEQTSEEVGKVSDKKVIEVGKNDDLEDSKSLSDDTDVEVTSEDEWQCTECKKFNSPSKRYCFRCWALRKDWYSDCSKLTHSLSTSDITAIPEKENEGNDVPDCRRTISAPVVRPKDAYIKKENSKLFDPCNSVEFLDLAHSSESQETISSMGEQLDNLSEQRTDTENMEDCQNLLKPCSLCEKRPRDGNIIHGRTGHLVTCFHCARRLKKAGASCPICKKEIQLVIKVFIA
# Sequence (Q00987 whole entry, looked up): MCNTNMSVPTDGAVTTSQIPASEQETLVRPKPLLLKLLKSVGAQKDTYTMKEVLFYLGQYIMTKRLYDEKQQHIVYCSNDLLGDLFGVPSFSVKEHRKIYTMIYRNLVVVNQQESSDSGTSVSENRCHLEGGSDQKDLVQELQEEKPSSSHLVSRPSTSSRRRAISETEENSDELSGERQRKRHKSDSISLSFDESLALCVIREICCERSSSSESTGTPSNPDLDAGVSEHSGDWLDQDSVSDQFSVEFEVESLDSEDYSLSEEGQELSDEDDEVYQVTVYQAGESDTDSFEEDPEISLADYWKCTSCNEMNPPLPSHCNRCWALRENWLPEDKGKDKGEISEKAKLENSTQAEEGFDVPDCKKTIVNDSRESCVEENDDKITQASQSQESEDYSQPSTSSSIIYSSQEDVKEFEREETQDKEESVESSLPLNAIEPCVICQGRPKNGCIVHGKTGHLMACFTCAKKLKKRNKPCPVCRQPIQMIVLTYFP
# assayMethodText: inhibitors of human Mdm2-MdmX association, primary screen, cell-based, luminescence, split luciferase, SaOS-2, uHTS (AID 485346)
# experimentalContext: SaOS-2 split-luciferase Mdm2/MdmX complementation, at 8 µM, stronger effect = higher value
Among all 330,000 compounds or so, about 10,000 (3%) were called active. This is one part of a sample in which actives are shown more often than they occur.
Use % as the unit, but write only the number.

Consider the following illustrative entries.
> print(dat)
                                   molecule  readingunit  recordedvalue
1  O=c1c2ccccc2nc(/C=C/c2ccco2)n1-c1ccccc1O            %          -1.65
2        O=C1NC(=O)C(C/C=C/c2ccccc2)C(=O)N1            %          -4.93
3  COC(=O)[C@@H]1C(OC(=O)c2ccccc2)CC2CCC1N2C (some centres undefined)            %           5.75

Okay, now this molecule:
The reported value for CC1(C)Cc2c(C#N)c(N3CCNCC3)nc(-c3ccco3)c2CS1 in terms of inhibition is 62
